assay: Redox properties by differential pulse and cyclic voltammetry; format: physicochemical; settings: cyclic voltammetry, physiological pH
readout: reversibility of the oxidation reaction

CS(=O)(=O)[O-].O=C(/C=C/c1ccc(O)c(O)c1)NCCCCCCCCCC[P+](c1ccccc1)(c1ccccc1)c1ccccc1 [AntiOxCIN6] :: reversible reaction
O=C(O)/C=C/c1ccc(O)c(O)c1 [Caffeic acid, caffeic acid, reference compound] :: reversible reaction
CS(=O)(=O)[O-].O=C(/C=C/c1ccc(O)c(O)c1)NCC[P+](c1ccccc1)(c1ccccc1)c1ccccc1 [AntiOxCIN1, reference compound] :: reversible reaction

* * *

Reported Lag Phase values for a set of compounds
test system: rat liver mitochondria (RLM); test: Mitochondrial transmembrane electric potential (ΔΨ) of RLM, safranine fluorescence; type: biochemical; settings: glutamate/malate; 2.5 μM
Report only the number, with the unit s understood.

Illustrative cases are given below, each with its answer.
CS(=O)(=O)[O-].O=C(/C=C/c1ccc(O)c(O)c1)NCCCCCCCC[P+](c1ccccc1)(c1ccccc1)c1ccccc1 [AntiOxCIN3] :: 65.8
CS(=O)(=O)[O-].O=C(/C=C/c1cc(O)c(O)c(O)c1)NCCCCCCCCCC[P+](c1ccccc1)(c1ccccc1)c1ccccc1 [AntiOxCIN7] :: 73.4
CS(=O)(=O)[O-].O=C(/C=C/c1cc(O)c(O)c(O)c1)NCCCCCC[P+](c1ccccc1)(c1ccccc1)c1ccccc1 [AntiOxCIN4] :: 84.7

Which value of Lag Phase has been reported for CS(=O)(=O)[O-].O=C(/C=C/c1ccc(O)c(O)c1)NCCCCCC[P+](c1ccccc1)(c1ccccc1)c1ccccc1 [AntiOxCIN2] in the records?
81.2

* * *

test system: rat liver mitochondria (RLM); experiment: Mitochondrial transmembrane electric potential (ΔΨ) of RLM, safranine fluorescence; format: biochemical; details: glutamate/malate; 2.5 μM
Binary call on Repolarization Potential (ΔΨ in - mV): yes from 200 mV upward, no beneath that.

CS(=O)(=O)[O-].O=C(/C=C/c1cc(O)c(O)c(O)c1)NCCCCCCCCCC[P+](c1ccccc1)(c1ccccc1)c1ccccc1 [AntiOxCIN7] :: yes
COC1=C(OC)C(=O)C(CCCCCCCCCC[P+](c2ccccc2)(c2ccccc2)c2ccccc2)=C(C)C1=O.CS(=O)(=O)[O-] [MitoQ, reference compound] :: no
CS(=O)(=O)[O-].O=C(/C=C/c1cc(O)c(O)c(O)c1)NCCCCCCCC[P+](c1ccccc1)(c1ccccc1)c1ccccc1 [AntiOxCIN5] :: yes
CS(=O)(=O)[O-].O=C(/C=C/c1ccc(O)c(O)c1)NCCCCCCCCCC[P+](c1ccccc1)(c1ccccc1)c1ccccc1 [AntiOxCIN6] :: yes
CS(=O)(=O)[O-].O=C(/C=C/c1ccc(O)c(O)c1)NCCCCCCCC[P+](c1ccccc1)(c1ccccc1)c1ccccc1 [AntiOxCIN3] :: yes

Let's switch to this compound now.
State whether the measured Repolarization Potential (ΔΨ in - mV) reaches 200 mV, counting equality as reaching it, for CS(=O)(=O)[O-].O=C(/C=C/c1cc(O)c(O)c(O)c1)NCCCCCC[P+](c1ccccc1)(c1ccccc1)c1ccccc1 [AntiOxCIN4]
yes

* * *

Reported RCR (respiratory control ratio, state 3/state 4) values for a set of compounds
system: rat liver mitochondria (RLM); assay: Mitochondrial respiration of isolated RLM (Clark-type oxygen electrode); assay type: biochemical; conditions: glutamate/malate; 10 μM
A bare number is all that is needed in reply.

Illustrative cases are given below, each with its answer.
CS(=O)(=O)[O-].O=C(/C=C/c1cc(O)c(O)c(O)c1)NCCCCCCCCCC[P+](c1ccccc1)(c1ccccc1)c1ccccc1 [AntiOxCIN7] :: 3.3
CS(=O)(=O)[O-].O=C(/C=C/c1cc(O)c(O)c(O)c1)NCCCCCC[P+](c1ccccc1)(c1ccccc1)c1ccccc1 [AntiOxCIN4] :: 3.5

Let us examine a further case.
Which value of RCR (respiratory control ratio, state 3/state 4) has been reported for CS(=O)(=O)[O-].O=C(/C=C/c1cc(O)c(O)c(O)c1)NCCCCCCCC[P+](c1ccccc1)(c1ccccc1)c1ccccc1 [AntiOxCIN5] in the records?
3.2

* * *

test system: rat liver mitochondria (RLM); test: Mitochondrial transmembrane electric potential (ΔΨ) of RLM, safranine fluorescence; type: biochemical; conditions: succinate; 5 μM
readout: Maximum potential (ΔΨ in - mV)
Report only the number, with the unit mV understood.

Illustrative cases are given below, each with its answer.
CS(=O)(=O)[O-].O=C(/C=C/c1ccc(O)c(O)c1)NCCCCCCCCCC[P+](c1ccccc1)(c1ccccc1)c1ccccc1 [AntiOxCIN6] :: 178.3
CS(=O)(=O)[O-].O=C(/C=C/c1cc(O)c(O)c(O)c1)NCCCCCCCC[P+](c1ccccc1)(c1ccccc1)c1ccccc1 [AntiOxCIN5] :: 190.1
CS(=O)(=O)[O-].O=C(/C=C/c1cc(O)c(O)c(O)c1)NCCCCCC[P+](c1ccccc1)(c1ccccc1)c1ccccc1 [AntiOxCIN4] :: 197.6

Please provide the recorded Maximum potential (ΔΨ in - mV) for COC1=C(OC)C(=O)C(CCCCCCCCCC[P+](c2ccccc2)(c2ccccc2)c2ccccc2)=C(C)C1=O.CS(=O)(=O)[O-] [MitoQ, reference compound] , tested on rat liver mitochondria (RLM).
170.2

Please provide the recorded Maximum potential (ΔΨ in - mV) for CS(=O)(=O)[O-].O=C(/C=C/c1ccc(O)c(O)c1)NCCCCCCCC[P+](c1ccccc1)(c1ccccc1)c1ccccc1 [AntiOxCIN3] , tested on rat liver mitochondria (RLM).
193.3

Please provide the recorded Maximum potential (ΔΨ in - mV) for CS(=O)(=O)[O-].O=C(/C=C/c1ccc(O)c(O)c1)NCCCCCC[P+](c1ccccc1)(c1ccccc1)c1ccccc1 [AntiOxCIN2] , tested on rat liver mitochondria (RLM).
189.7

Please provide the recorded Maximum potential (ΔΨ in - mV) for CS(=O)(=O)[O-].O=C(/C=C/c1cc(O)c(O)c(O)c1)NCCCCCCCCCC[P+](c1ccccc1)(c1ccccc1)c1ccccc1 [AntiOxCIN7] , tested on rat liver mitochondria (RLM).
191.1

* * *

System: rat liver mitochondria (RLM)
Assay: Mitochondrial transmembrane electric potential (ΔΨ) of RLM, safranine fluorescence
Format: biochemical
Conditions: glutamate/malate; 10 μM
Description: In an embodiment, and as an example, AntiOxCINs and MitoQ toxicity effects on the mitochondrial bioenergetics, namely on RLM ΔΨ and mitochondrial respiration parameters, were measured. […] In addition, the mitochondrial oxidative phosphorylation coupling index, known as respiratory control ratio (RCR, state 3/state 4 respiration) and ADP/O index (the coupling between ATP synthesis and oxygen consumption) were also calculated. […]
readout: Maximum potential (ΔΨ in - mV)
Report only the number, with the unit mV understood.

COC1=C(OC)C(=O)C(CCCCCCCCCC[P+](c2ccccc2)(c2ccccc2)c2ccccc2)=C(C)C1=O.CS(=O)(=O)[O-] [MitoQ, reference compound] :: 113.9
CS(=O)(=O)[O-].O=C(/C=C/c1ccc(O)c(O)c1)NCCCCCC[P+](c1ccccc1)(c1ccccc1)c1ccccc1 [AntiOxCIN2] :: 209.8
CS(=O)(=O)[O-].O=C(/C=C/c1cc(O)c(O)c(O)c1)NCCCCCCCCCC[P+](c1ccccc1)(c1ccccc1)c1ccccc1 [AntiOxCIN7] :: 232.1

Let us examine a further case.
Which value of Maximum potential (ΔΨ in - mV) has been reported for CS(=O)(=O)[O-].O=C(/C=C/c1cc(O)c(O)c(O)c1)NCCCCCC[P+](c1ccccc1)(c1ccccc1)c1ccccc1 [AntiOxCIN4] in the records?
216.8

* * *

tested on: rat liver mitochondria (RLM); test: Mitochondrial transmembrane electric potential (ΔΨ) of RLM, safranine fluorescence; type: biochemical; settings: succinate; 2.5 μM
Reported ADP-induced depolarization (ΔΨ in - mV) values for a set of molecules
Report only the number, with the unit mV understood.

Please provide the recorded ADP-induced depolarization (ΔΨ in - mV) for CS(=O)(=O)[O-].O=C(/C=C/c1cc(O)c(O)c(O)c1)NCCCCCC[P+](c1ccccc1)(c1ccccc1)c1ccccc1 [AntiOxCIN4] , tested on rat liver mitochondria (RLM).
171.2

Please provide the recorded ADP-induced depolarization (ΔΨ in - mV) for COC1=C(OC)C(=O)C(CCCCCCCCCC[P+](c2ccccc2)(c2ccccc2)c2ccccc2)=C(C)C1=O.CS(=O)(=O)[O-] [MitoQ, reference compound] , tested on rat liver mitochondria (RLM).
162.1

Please provide the recorded ADP-induced depolarization (ΔΨ in - mV) for CS(=O)(=O)[O-].O=C(/C=C/c1ccc(O)c(O)c1)NCCCCCCCC[P+](c1ccccc1)(c1ccccc1)c1ccccc1 [AntiOxCIN3] , tested on rat liver mitochondria (RLM).
171.5

Please provide the recorded ADP-induced depolarization (ΔΨ in - mV) for CS(=O)(=O)[O-].O=C(/C=C/c1cc(O)c(O)c(O)c1)NCCCCCCCC[P+](c1ccccc1)(c1ccccc1)c1ccccc1 [AntiOxCIN5] , tested on rat liver mitochondria (RLM).
177.2

* * *

tested on: rat liver mitochondria (RLM); test: Mitochondrial respiration of isolated RLM (Clark-type oxygen electrode); format: biochemical; conditions: succinate; 5 μM
readout: RCR (respiratory control ratio, state 3/state 4)
A bare number is all that is needed in reply.

Which value of RCR (respiratory control ratio, state 3/state 4) has been reported for CS(=O)(=O)[O-].O=C(/C=C/c1cc(O)c(O)c(O)c1)NCCCCCCCCCC[P+](c1ccccc1)(c1ccccc1)c1ccccc1 [AntiOxCIN7] in the records?
3.1

Which value of RCR (respiratory control ratio, state 3/state 4) has been reported for CS(=O)(=O)[O-].O=C(/C=C/c1ccc(O)c(O)c1)NCCCCCCCC[P+](c1ccccc1)(c1ccccc1)c1ccccc1 [AntiOxCIN3] in the records?
4.7

Which value of RCR (respiratory control ratio, state 3/state 4) has been reported for CS(=O)(=O)[O-].O=C(/C=C/c1ccc(O)c(O)c1)NCCCCCC[P+](c1ccccc1)(c1ccccc1)c1ccccc1 [AntiOxCIN2] in the records?
3.3

Which value of RCR (respiratory control ratio, state 3/state 4) has been reported for CS(=O)(=O)[O-].O=C(/C=C/c1ccc(O)c(O)c1)NCCCCCCCCCC[P+](c1ccccc1)(c1ccccc1)c1ccccc1 [AntiOxCIN6] in the records?
3.2

Which value of RCR (respiratory control ratio, state 3/state 4) has been reported for COC1=C(OC)C(=O)C(CCCCCCCCCC[P+](c2ccccc2)(c2ccccc2)c2ccccc2)=C(C)C1=O.CS(=O)(=O)[O-] [MitoQ, reference compound] in the records?
2.4

Which value of RCR (respiratory control ratio, state 3/state 4) has been reported for CS(=O)(=O)[O-].O=C(/C=C/c1cc(O)c(O)c(O)c1)NCCCCCCCC[P+](c1ccccc1)(c1ccccc1)c1ccccc1 [AntiOxCIN5] in the records?
4.4

Which value of RCR (respiratory control ratio, state 3/state 4) has been reported for CS(=O)(=O)[O-].O=C(/C=C/c1cc(O)c(O)c(O)c1)NCCCCCC[P+](c1ccccc1)(c1ccccc1)c1ccccc1 [AntiOxCIN4] in the records?
3.0
